# Assay target: T1, human ORL-1 receptor (opioid receptor like 1) (human, UniProt P41146 1-370)
# T1 construct: whole, on cells; Assays were run on membranes of CHO cells transfected with human ORL-1; also called opiate receptor like 1; nociceptin receptor
# T1 sequence (P41146 whole entry): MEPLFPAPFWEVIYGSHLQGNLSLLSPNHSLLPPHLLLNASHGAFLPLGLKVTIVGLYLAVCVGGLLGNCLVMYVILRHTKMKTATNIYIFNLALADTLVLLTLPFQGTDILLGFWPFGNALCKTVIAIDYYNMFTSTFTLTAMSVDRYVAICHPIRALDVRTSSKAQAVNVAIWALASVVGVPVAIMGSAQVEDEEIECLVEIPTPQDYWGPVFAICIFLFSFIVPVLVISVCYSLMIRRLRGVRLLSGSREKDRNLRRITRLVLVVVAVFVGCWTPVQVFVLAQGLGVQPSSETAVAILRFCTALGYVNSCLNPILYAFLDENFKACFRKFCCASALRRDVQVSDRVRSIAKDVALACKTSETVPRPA
# Method summary: [3H]nociceptin displacement, membranes of CHO cells transfected with human ORL-1; Ki=IC50/(1+L/Kd)
Numbered stars: 1 amine (or outer) side, 2 acyl side, 3 side chain; on linkers, the order of the positions; unused ones are H or OH. Square brackets hold non-standard residues; d marks the D form. Ends that are not written are not given here. hPhe(2,4-di-NO2) = 2,4-di-NO2 homophenylalanine, O=C([C@H](CCc1ccc([N+](=O)[O-])cc1[N+](=O)[O-])N[*:1])[*:2]; Dmt = Cc1cc(O)cc(C)c1C[C@H](N)C(=O)O; Ac6c = NC1(C(=O)O)CCCCC1
Measured metric: Ki (nM)
Numbers only here, please. The scale is nM.

- Binder: "[Ac6c]RYYRWR-NH2 (N-terminus assumed; SMILES N=C(N)NCCC[C@H](NC(=O)[C@H](Cc1c[nH]c2ccccc12)NC(=O)[C@H](CCCNC(=N)N)NC(=O)[C@H](Cc1ccc(O)cc1)NC(=O)[C@H](Cc1ccc(O)cc1)NC(=O)[C@H](CCCNC(=N)N)NC(=O)C1(N)CCCCC1)C(N)=O, also called 1-aminocyclohexanoyl-Arg-Tyr-Tyr-Arg-Trp-Arg-NH2) [VII-4-B]"
  Ki [nM]: 9.25
- Binder: "Ac-RY[hPhe(2,4-di-NO2)]RWR-NH2 (SMILES CC(=O)N[C@@H](CCCNC(=N)N)C(=O)N[C@@H](Cc1ccc(O)cc1)C(=O)N[C@@H](CCc1ccc([N+](=O)[O-])cc1[N+](=O)[O-])C(=O)N[C@@H](CCCNC(=N)N)C(=O)N[C@@H](Cc1c[nH]c2ccccc12)C(=O)N[C@@H](CCCNC(=N)N)C(N)=O, also called Ac-Arg-Tyr-hPhe(2,4-di-NO2)-Arg-Trp-Arg-NH2) [VII-71-B]"
  Ki [nM]: 0.63

Moving on to another binder below.
Reported Ki of Ac-RY[Dmt]RWR-NH2 (SMILES CC(=O)N[C@@H](CCCNC(=N)N)C(=O)N[C@@H](Cc1ccc(O)cc1)C(=O)N[C@@H](Cc1c(C)cc(O)cc1C)C(=O)N[C@@H](CCCNC(=N)N)C(=O)N[C@@H](Cc1c[nH]c2ccccc12)C(=O)N[C@@H](CCCNC(=N)N)C(N)=O, also called Ac-Arg-Tyr-Tyr(2,6-di-Me)-Arg-Trp-Arg-NH2) [VII-73-A] : 0.04

Taken from patent US20030166571A1.
